Cited source: patent US20240158446A1

- subject of test: GDP-bound KRAS wild-type protein (Homo sapiens)
- Sequence (P01116 whole entry): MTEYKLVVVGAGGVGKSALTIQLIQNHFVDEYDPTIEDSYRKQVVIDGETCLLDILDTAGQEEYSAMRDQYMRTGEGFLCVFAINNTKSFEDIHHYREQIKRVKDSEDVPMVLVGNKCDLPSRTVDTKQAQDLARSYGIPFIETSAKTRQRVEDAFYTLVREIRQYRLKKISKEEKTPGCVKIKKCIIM
- assay: Binding to KRAS by surface plasmon resonance (SPR), Single Cycle Kinetics
- condition info: SPR, Single Cycle Kinetics, 1:1 binding model; GDP-bound KRAS wild-type protein; read-out: KRAS KD
observed property: pKd
Give bare numbers, as −log10 of the molar value.

Here's what some known entries look like.
CCO[C@@H]1C[C@H]2C(=O)NC3(CCC3)C(=O)N(C)[C@@H](C(CC)CC)C(=O)N(C)[C@H](C(=O)N(C)C)CC(=O)N(C)[C@@H](CC3CCCC3)C(=O)N[C@@H]([C@@H](C)CC)C(=O)N(C)CC(=O)N(C)[C@H]3C/C=C\CCN(C3=O)[C@@H](Cc3ccc(F)cc3C)C(=O)N(C)CC(=O)N[C@@H](CCc3cc(F)c(C(F)(F)F)c(F)c3)C(=O)N2C1    9.01
CCO[C@@H]1C[C@H]2C(=O)NC3(CCC3)C(=O)N(C)[C@@H](C3CCCC3)C(=O)N(C)[C@H](C(=O)N(C)C)CC(=O)N(C)[C@@H](CC)C(=O)N[C@@H](C(C)C)C(=O)N(C)CC(=O)N(C)[C@H]3C/C=C\CCN(C3=O)[C@@H](Cc3ccc(C(F)(F)F)cc3)C(=O)N(C)CC(=O)N[C@@H](CCc3cc(F)c(C(F)(F)F)c(F)c3)C(=O)N2C1    9.89

Would you kindly look at the next entry?
Please report the recorded pKd for `CCO[C@@H]1C[C@H]2C(=O)NC3(CCC3)C(=O)N(C)[C@@H](C3CCCC3)C(=O)N(C)[C@H](C(=O)N(C)C)CC(=O)N(C)[C@@H](CC)C(=O)N[C@@H](C3CCC3)C(=O)N(C)CC(=O)N(C)[C@H]3C/C=C\CCN(C3=O)[C@@H](Cc3ccc(C(F)(F)F)cc3)C(=O)N(C)CC(=O)N[C@@H](CCc3cc(F)c(C(F)(F)F)c(F)c3)C(=O)N2C1` .
10.04
